Data origin, for the record: the supplement of paper PMC3545927

# ASSAYED_SYSTEM: furin, P09958;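 further: purified furin at 1:10 enzyme:substrate in 50 mM HEPES pH 7.5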
# Sequence (P09958 whole entry): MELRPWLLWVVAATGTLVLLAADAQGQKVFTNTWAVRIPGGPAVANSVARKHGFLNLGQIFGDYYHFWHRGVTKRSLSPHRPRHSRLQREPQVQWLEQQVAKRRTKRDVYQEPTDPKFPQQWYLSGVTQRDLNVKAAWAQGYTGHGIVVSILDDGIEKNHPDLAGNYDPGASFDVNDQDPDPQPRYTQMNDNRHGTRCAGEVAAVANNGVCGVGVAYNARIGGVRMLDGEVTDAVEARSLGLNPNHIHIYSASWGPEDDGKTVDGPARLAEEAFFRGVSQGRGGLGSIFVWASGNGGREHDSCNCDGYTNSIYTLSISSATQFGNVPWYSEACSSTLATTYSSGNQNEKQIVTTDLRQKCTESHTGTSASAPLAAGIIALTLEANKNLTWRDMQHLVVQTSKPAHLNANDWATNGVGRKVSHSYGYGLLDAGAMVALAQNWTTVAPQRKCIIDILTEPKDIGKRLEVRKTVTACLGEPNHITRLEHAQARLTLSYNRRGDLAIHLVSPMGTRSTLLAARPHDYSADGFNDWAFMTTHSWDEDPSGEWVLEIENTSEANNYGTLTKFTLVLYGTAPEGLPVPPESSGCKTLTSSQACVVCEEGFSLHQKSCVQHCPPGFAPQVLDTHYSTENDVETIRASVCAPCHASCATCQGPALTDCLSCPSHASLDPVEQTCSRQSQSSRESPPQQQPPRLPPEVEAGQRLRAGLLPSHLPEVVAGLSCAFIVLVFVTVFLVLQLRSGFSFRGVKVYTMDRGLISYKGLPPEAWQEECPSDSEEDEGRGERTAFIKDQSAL
# TEST_NAME: furin cleavage Z-score vs untreated control; higher = more cleavage, active = 3.5 or more, inactive = 1 or less, 8 variable residues between constant flanks
# PROTOCOL_CONDITIONS: 7.5 min
This is one part of the list. The true hit rate is not given.
Measured furin cleavage Z-score by item
Output: the number by itself.

Past entries and their recorded results:
CAEVPCHRPKAGNASASA [HC2414] | -1.63
CASTPCSAHGAGNASASA [HC2576] | -0.871
CARYKRWRKHAGNASASA [FS-2112] | 4.44
CARGYKGVWRAGNASASA [HC1167] | 0.51
CAHTQRNRRSAGNASASA [FS-799] | 11.3
CAVVCCSESYAGNASASA [HC2052] | -0.759

Now take the following sequence into account.
Measured furin cleavage Z-score, CARYKRPGLPAGNASASA [FS-2849] : -0.56
